- TEST TARGET: recombinant CpLDH protein (Cryptosporidium parvum, UniProt Q9GT92, F198L/K295E/R251K)
MEAN CpLDH INHIBITION (%) values, listed per item
Could you give the number and then its unit, please?

Please state recorded MEAN CpLDH INHIBITION (%) (tested on recombinant CpLDH protein (Cryptosporidium parvum, UniProt Q9GT92, F198L/K295E/R251K)) of CCOC(=O)CCc1c(C)c2c(O)cc(O)cc2oc1=O [NSC622616]
-39.56%

Continuing:
Please state recorded MEAN CpLDH INHIBITION (%) (tested on recombinant CpLDH protein (Cryptosporidium parvum, UniProt Q9GT92, F198L/K295E/R251K)) of CC1(C)CCC[C@]2(C)C3=C(CC[C@@H]12)C(=O)OC3 [NSC375294]
-39.63%

Please state recorded MEAN CpLDH INHIBITION (%) (tested on recombinant CpLDH protein (Cryptosporidium parvum, UniProt Q9GT92, F198L/K295E/R251K)) of O=C1C=C2C=CC3CC2(O1)C1CCCCN31 (stereo not drawn) [NSC107415]
-39.15%

---

MEAN CpLDH INHIBITION (%) values, listed per item
- TEST TARGET: recombinant CpLDH protein (Cryptosporidium parvum, UniProt Q9GT92, F198L/K295E/R251K)
Numbers only here, please. The scale is %.

Please review the following examples before continuing.
Please state recorded MEAN CpLDH INHIBITION (%) (tested on recombinant CpLDH protein (Cryptosporidium parvum, UniProt Q9GT92, F198L/K295E/R251K)) of "Nc1nc(-c2cccs2)cs1"
-31.48

Please state recorded MEAN CpLDH INHIBITION (%) (tested on recombinant CpLDH protein (Cryptosporidium parvum, UniProt Q9GT92, F198L/K295E/R251K)) of "C=C(CN(C)C)C(=O)c1ccccc1Cl.Cl"
-43.42

Please state recorded MEAN CpLDH INHIBITION (%) (tested on recombinant CpLDH protein (Cryptosporidium parvum, UniProt Q9GT92, F198L/K295E/R251K)) of "Cc1cc([N+](=O)[O-])ccc1Nc1cccc(Cl)c1C"
-6.68

Please state recorded MEAN CpLDH INHIBITION (%) (tested on recombinant CpLDH protein (Cryptosporidium parvum, UniProt Q9GT92, F198L/K295E/R251K)) of "C1CCNCC1.S=C(S)N1CCCCC1"
-58.60

Please state recorded MEAN CpLDH INHIBITION (%) (tested on recombinant CpLDH protein (Cryptosporidium parvum, UniProt Q9GT92, F198L/K295E/R251K)) of "COc1ccc(Cc2nc3ccccc3s2)cc1OC"
-7.14

Continuing:
Please state recorded MEAN CpLDH INHIBITION (%) (tested on recombinant CpLDH protein (Cryptosporidium parvum, UniProt Q9GT92, F198L/K295E/R251K)) of "CCOC(=O)Nc1nc2ccc(Cn3cccc3)cc2[nH]1"
-8.79

---

MEAN CpLDH INHIBITION (%) values, listed per item
- TEST TARGET: recombinant CpLDH protein (Cryptosporidium parvum, UniProt Q9GT92, F198L/K295E/R251K)
Numbers only here, please. The scale is %.

Please state recorded MEAN CpLDH INHIBITION (%) (tested on recombinant CpLDH protein (Cryptosporidium parvum, UniProt Q9GT92, F198L/K295E/R251K)) of CC(C)C1(Cl)CCC2C3(C)CCCC(C)(C(=O)O)C3CC(Cl)C2(Cl)C1Cl (centres unmarked)
-29.91

Please state recorded MEAN CpLDH INHIBITION (%) (tested on recombinant CpLDH protein (Cryptosporidium parvum, UniProt Q9GT92, F198L/K295E/R251K)) of "COc1ccc2c(c1[N+](=O)[O-])CC[C@@H]1[C@@H]2CC[C@]2(C)C(=O)CC[C@@H]12"
-29.51

Please state recorded MEAN CpLDH INHIBITION (%) (tested on recombinant CpLDH protein (Cryptosporidium parvum, UniProt Q9GT92, F198L/K295E/R251K)) of CC(=O)C1=C(O)C2(O)C(=O)c3c(c(C)c4ccc(C)c(O)c4c3O)CC2C(N)C1=O.CCCCCCCCCCCCOS(=O)(=O)O (centres unmarked)
-99.50

Please state recorded MEAN CpLDH INHIBITION (%) (tested on recombinant CpLDH protein (Cryptosporidium parvum, UniProt Q9GT92, F198L/K295E/R251K)) of "COc1ccc(/C=C/c2cc(O)cc(O[C@@H]3O[C@H](CO)[C@@H](O)[C@H](O)[C@H]3O)c2)cc1O"
-58.94

Please state recorded MEAN CpLDH INHIBITION (%) (tested on recombinant CpLDH protein (Cryptosporidium parvum, UniProt Q9GT92, F198L/K295E/R251K)) of "COc1cc2c3c(n(C)c(=O)c2cc1OC)-c1cc2c(cc1C3=O)OCO2"
-4.47

Continuing:
Please state recorded MEAN CpLDH INHIBITION (%) (tested on recombinant CpLDH protein (Cryptosporidium parvum, UniProt Q9GT92, F198L/K295E/R251K)) of "COc1ccc(/C=C/C(=O)Oc2cc(O)cc(O)c2)cc1"
0.00

Please state recorded MEAN CpLDH INHIBITION (%) (tested on recombinant CpLDH protein (Cryptosporidium parvum, UniProt Q9GT92, F198L/K295E/R251K)) of "CC(C)(C)c1ccc(O)c(CN(Cc2cc(C(C)(C)C)ccc2O)C2CCCCC2)c1"
-66.17

Please state recorded MEAN CpLDH INHIBITION (%) (tested on recombinant CpLDH protein (Cryptosporidium parvum, UniProt Q9GT92, F198L/K295E/R251K)) of "O=C(CC(=O)c1ccccc1NC1=Cc2ccccc2C(=O)C1=O)C(=O)NC1=C(Cl)C(=O)c2ccccc2C1=O"
-19.61

---

Read-out record for recombinant CpLDH protein (Cryptosporidium parvum, UniProt Q9GT92, F198L/K295E/R251K): MEAN CpLDH INHIBITION (%)
Numbers only here, please. The scale is %.

Please review the following examples before continuing.
Please state recorded MEAN CpLDH INHIBITION (%) (tested on recombinant CpLDH protein (Cryptosporidium parvum, UniProt Q9GT92, F198L/K295E/R251K)) of CN(C)C(=S)/N=c1\ss/c(=N\C(=S)N(C)C)n1-c1ccc2c(c1)OCO2 [NSC622589]
-7.95

Please state recorded MEAN CpLDH INHIBITION (%) (tested on recombinant CpLDH protein (Cryptosporidium parvum, UniProt Q9GT92, F198L/K295E/R251K)) of O=C(CC(O)(C(F)(F)F)C(F)(F)Cl)CC(O)(C(F)(F)F)C(F)(F)Cl (centres unmarked) [NSC659174]
-13.23

Please state recorded MEAN CpLDH INHIBITION (%) (tested on recombinant CpLDH protein (Cryptosporidium parvum, UniProt Q9GT92, F198L/K295E/R251K)) of Nc1ncnc2c([C@@H]3O[C@H](CO)[C@@H](O)[C@H]3O)c[nH]c12 [NSC352890]
-27.24

Continuing:
Please state recorded MEAN CpLDH INHIBITION (%) (tested on recombinant CpLDH protein (Cryptosporidium parvum, UniProt Q9GT92, F198L/K295E/R251K)) of C[C@H](CN1CC(=O)NC(=O)C1)N1CC(=O)NC(=O)C1 [NSC169779]
-13.00

Please state recorded MEAN CpLDH INHIBITION (%) (tested on recombinant CpLDH protein (Cryptosporidium parvum, UniProt Q9GT92, F198L/K295E/R251K)) of O=[N+]([O-])c1cccc2nc3ccccc3c(NCCCNc3c4ccccc4nc4cccc([N+](=O)[O-])c34)c12 [NSC690634]
-61.23

Please state recorded MEAN CpLDH INHIBITION (%) (tested on recombinant CpLDH protein (Cryptosporidium parvum, UniProt Q9GT92, F198L/K295E/R251K)) of Cl.Nc1nc(N)c2ncn(-c3ccccc3)c2n1 [NSC29603]
-54.90

---

Read-out record for recombinant CpLDH protein (Cryptosporidium parvum, UniProt Q9GT92, F198L/K295E/R251K): MEAN CpLDH INHIBITION (%)
Numbers only here, please. The scale is %.

Please review the following examples before continuing.
Please state recorded MEAN CpLDH INHIBITION (%) (tested on recombinant CpLDH protein (Cryptosporidium parvum, UniProt Q9GT92, F198L/K295E/R251K)) of "O=C(CC(=O)c1ccccc1)CC(O)(c1ccccc1)c1ccccc1"
-33.26

Please state recorded MEAN CpLDH INHIBITION (%) (tested on recombinant CpLDH protein (Cryptosporidium parvum, UniProt Q9GT92, F198L/K295E/R251K)) of "O=C1/C(=C\c2cccs2)Oc2ccccc21"
-23.78

Please state recorded MEAN CpLDH INHIBITION (%) (tested on recombinant CpLDH protein (Cryptosporidium parvum, UniProt Q9GT92, F198L/K295E/R251K)) of CC1=C/C(=N\OCC(=O)O)CC(c2ccc(C(C)C)cc2)C1 (centres unmarked)
-8.88

Continuing:
Please state recorded MEAN CpLDH INHIBITION (%) (tested on recombinant CpLDH protein (Cryptosporidium parvum, UniProt Q9GT92, F198L/K295E/R251K)) of "CCCNC1=C(C)C(=O)C2=C(C1=O)[C@H](COC(N)=O)[C@]1(OC)[C@@H]3N[C@@H]3CN21"
-0.99

Please state recorded MEAN CpLDH INHIBITION (%) (tested on recombinant CpLDH protein (Cryptosporidium parvum, UniProt Q9GT92, F198L/K295E/R251K)) of COc1cc(C(C)c2cc3c(cc2OCCO)OCO3)cc(OC)c1OC (centres unmarked)
-6.93

Please state recorded MEAN CpLDH INHIBITION (%) (tested on recombinant CpLDH protein (Cryptosporidium parvum, UniProt Q9GT92, F198L/K295E/R251K)) of Cc1cc(Cl)cc2c1NC(=O)C2(O)C(C(=O)c1ccccc1)c1ccccc1 (centres unmarked)
-63.48

Please state recorded MEAN CpLDH INHIBITION (%) (tested on recombinant CpLDH protein (Cryptosporidium parvum, UniProt Q9GT92, F198L/K295E/R251K)) of "O=[N+]([O-])c1ccc(-c2cn(-c3ccc(Cl)cc3)cn2)cc1"
-19.53

Please state recorded MEAN CpLDH INHIBITION (%) (tested on recombinant CpLDH protein (Cryptosporidium parvum, UniProt Q9GT92, F198L/K295E/R251K)) of "CCN(CC)Cc1cc(N=Nc2c(O)ccc3c(N=Nc4ccc(O)c(CN(CC)CC)c4)c(O)ccc23)ccc1O.Cl"
-17.14

Please state recorded MEAN CpLDH INHIBITION (%) (tested on recombinant CpLDH protein (Cryptosporidium parvum, UniProt Q9GT92, F198L/K295E/R251K)) of "O=c1cccccc1O"
-7.26

Please state recorded MEAN CpLDH INHIBITION (%) (tested on recombinant CpLDH protein (Cryptosporidium parvum, UniProt Q9GT92, F198L/K295E/R251K)) of CC(=O)OC1CC(n2cc(F)c(=O)[nH]c2=O)OC1CO (centres unmarked)
-11.80

Please state recorded MEAN CpLDH INHIBITION (%) (tested on recombinant CpLDH protein (Cryptosporidium parvum, UniProt Q9GT92, F198L/K295E/R251K)) of "COC(=O)C1=C(C(=O)OC)SC2(S1)C(C(=O)OC)=C(C(=O)OC)Sc1c2ssc1=O"
31.74

Please state recorded MEAN CpLDH INHIBITION (%) (tested on recombinant CpLDH protein (Cryptosporidium parvum, UniProt Q9GT92, F198L/K295E/R251K)) of CC1Oc2cc3c(-c4c(O)cc(O)c5c(O)c6c(cc45)OC(C)C(C)C6=O)c(O)cc(O)c3c(O)c2C(=O)C1C (centres unmarked)
-176.19
